Tested on: MDA-MB-436 cells
Test: Cell proliferation assay (MDA-MB-436)
Format: cell-based
Conditions: Homo sapiens, 168 h, 7 days
Overview of recorded IC50 for various compounds

The following compounds have reported results that may help.
Compound	Measured parameter	Reported value
Cc1sc(CN2CCCC2c2nnc3n2CCCCC3)nc1C12CC(C(=O)NCCOCCOCCOCCOCCNCC(=O)N3CCN(C(=O)c4cc(Cc5n[nH]c(=O)c6ccccc56)ccc4F)CC3)(C1)C2 (centres unmarked)	IC50	100 to 1000 nM
CCc1cccc(-c2cnc(C(=O)NCCOCCNCC(=O)N3CCN(C(=O)c4cc(Cc5n[nH]c(=O)c6ccccc56)ccc4F)CC3)c(N)c2)c1	IC50	< 10 nM
CCc1cccc(-c2cnc(C(=O)N3CCC(CN4CCN(CC(=O)N5CCN(C(=O)c6cc(Cc7n[nH]c(=O)c8ccccc78)ccc6F)CC5)CC4)CC3)c(NC3CC3)c2)c1	IC50	< 10 nM
O=C(N[C@@H](C(=O)N1CCN(CC2CCN(CC(=O)N3CCN(C(=O)c4cc(Cc5n[nH]c(=O)c6ccccc56)ccc4F)CC3)CC2)CC1)C1CCCCC1)c1cccc([C@H]2CCCN(C(=O)CNCc3ccc(F)cc3F)C2)c1	IC50	10 to 100 nM

Please look at the following compound next.
Recorded IC50 for CCOc1cc(OC)ccc1COCC(=O)N1CCCC(c2cccc(C(=O)N[C@@H](C(=O)N3CCN(CC4CCN(CC(=O)N5CCN(C(=O)c6cc(Cc7n[nH]c(=O)c8ccccc78)ccc6F)CC5)CC4)CC3)C3CCCCC3)c2)C1 (some centres unmarked) , please?
10 to 100 nM

###

Biological target: PARP1 (Homo sapiens)
Sequence (P09874 whole entry): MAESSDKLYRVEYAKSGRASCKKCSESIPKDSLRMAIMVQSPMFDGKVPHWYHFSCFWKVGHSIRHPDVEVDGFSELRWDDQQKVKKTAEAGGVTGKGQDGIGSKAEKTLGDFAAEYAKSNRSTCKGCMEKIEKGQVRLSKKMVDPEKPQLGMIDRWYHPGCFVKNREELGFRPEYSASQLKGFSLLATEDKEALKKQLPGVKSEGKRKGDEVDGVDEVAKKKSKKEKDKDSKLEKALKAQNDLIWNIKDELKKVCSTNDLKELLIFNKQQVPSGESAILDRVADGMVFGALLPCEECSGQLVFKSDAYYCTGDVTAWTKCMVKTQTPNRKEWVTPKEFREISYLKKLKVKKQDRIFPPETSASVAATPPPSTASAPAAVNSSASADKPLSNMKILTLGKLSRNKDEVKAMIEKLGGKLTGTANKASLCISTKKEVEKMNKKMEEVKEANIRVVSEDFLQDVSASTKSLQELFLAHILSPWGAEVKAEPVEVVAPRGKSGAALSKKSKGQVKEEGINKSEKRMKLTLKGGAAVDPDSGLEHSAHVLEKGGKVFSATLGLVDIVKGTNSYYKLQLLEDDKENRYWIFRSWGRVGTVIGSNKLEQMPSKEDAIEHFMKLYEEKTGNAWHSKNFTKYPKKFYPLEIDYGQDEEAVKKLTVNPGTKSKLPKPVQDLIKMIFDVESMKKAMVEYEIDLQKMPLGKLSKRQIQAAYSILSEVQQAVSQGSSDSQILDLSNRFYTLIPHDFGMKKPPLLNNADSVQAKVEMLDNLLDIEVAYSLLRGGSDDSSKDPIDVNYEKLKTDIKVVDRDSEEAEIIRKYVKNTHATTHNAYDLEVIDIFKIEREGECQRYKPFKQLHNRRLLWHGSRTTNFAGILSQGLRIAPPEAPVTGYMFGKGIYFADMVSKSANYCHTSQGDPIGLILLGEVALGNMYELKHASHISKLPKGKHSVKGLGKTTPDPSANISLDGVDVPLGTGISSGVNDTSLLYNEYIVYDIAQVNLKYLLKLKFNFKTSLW
Experiment: PARP trapping assay in U2OS cells
Format: cell-based
Parameters: endogenous in cells; host or cells: U2OS
Conditions: U2OS cells, MMS, 4 hrs; read-out: PARP Trapping (U2OS)
pIC50: −log10 of the molar value.
Measured parameter: pIC50

Compound	System name	pIC50
CCOc1cc(OC)ccc1CNCC(=O)N1CCCC(c2cccc(C(=O)N[C@@H](C(=O)N3CCN(CC4CCN(CC(=O)N5CCN(C(=O)c6cc(Cc7n[nH]c(=O)c8ccccc78)ccc6F)CC5)CC4)CC3)C3CCCCC3)c2)C1 (some centres unmarked) [Compound I-28]	PARP1 (Homo sapiens)	6.00 to 7.00

Value wanted: pIC50 (PARP1 (Homo sapiens)) of entry CCOc1cc(OC)ccc1CNCC(=O)N1CCCC(c2ccc(F)c(C(=O)N[C@@H](C(=O)N3CCN(CC4CCN(CC(=O)N5CCN(C(=O)c6cc(Cc7n[nH]c(=O)c8ccccc78)ccc6F)CC5)CC4)CC3)C3CCCCC3)c2)C1 (some centres unmarked) [Compound I-308]
7.00 to 8.00

Checklist item: pIC50 tested on PARP1 (Homo sapiens), entry O=C(N[C@@H](C(=O)N1CCN(CC(=O)N2CCN(C(=O)c3cc(Cc4n[nH]c(=O)c5ccccc45)ccc3F)CC2)CC1)C1CCCCC1)c1cc(C2CCCN(C(=O)C3CC3)C2)ccc1F (some centres unmarked) [Compound I-453] , value?
6.00 to 7.00

Find pIC50 (PARP1 (Homo sapiens)) for the entry CCc1cccc(-c2cnc(C(=O)NC34CCC(CN5CCN(CC(=O)N6CCN(C(=O)c7cc(Cc8n[nH]c(=O)c9ccccc89)ccc7F)CC6)CC5)(CC3)OC4)c(N)c2)c1 [Compound I-470]
7.00 to 8.00

What is its pIC50 for PARP1 (Homo sapiens)? Entry: COC12CCC(CNCC(=O)N3CCCC(c4cccc(C(=O)N[C@@H](C(=O)N5CCC(CN6CCN(CC(=O)N7CCN(C(=O)c8cc(Cc9n[nH]c(=O)c%10ccccc9%10)ccc8F)CC7)CC6)CC5)C5CCCCC5)c4)C3)(CC1)OC2 (some centres unmarked) [Compound I-165]
6.00 to 7.00
